- experimental.details: protein stability index of a GFP-peptide fusion (GPS, HEK-293T) (PSI 1-6); higher = more stable;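 note: 24-mer peptide tiles fused after GFP, lentivirally expressed, FACS-sorted into six equal bins by GFP/DsRed ratio, decoded by Illumina sequencing, PSI is the read-weighted mean bin number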
- assay.context: treatment: MLN4924 1 uM, 8 h; c terminus: a fixed tail appended
Listed here are sequences together with their documented protein stability index.

Some solved entries appear below for comparison.
INSERT INTO measurements (polymer_sequence, result) VALUES
  ('NTLVCNGLQNCVYPWDENHCKEKR [NETO1]', 4.26),
  ('MDGESEEEQESVDTGEEEEGGDES [EHMT1]', 5.51),
  ('KLAIIPGGGGTQRLPRAIGMSLAK [AUH]', 2.88),
  ('QNQHHSASLQASIFSGAASLGYGT [APBB1IP]', 3.15),
  ('EFLELSPQKLKEVISLEKLNVGNE [GAN]', 3.09);

In: Dear colleague, I am looking for the recorded protein stability index of the following sequence: HRQETVDCLKKFNARRKLKGAILT [CAMK2D]
Out: 2.71

In: Dear colleague, I am looking for the recorded protein stability index of the following sequence: LWILHLLLECYIQYHHSKIRNRGY [TMEM192]
Out: 2.49

In: Dear colleague, I am looking for the recorded protein stability index of the following sequence: CRYLNFTKGEEISVYVKLAGERED [MIA2]
Out: 2.77
